System: Acinetobacter baumannii ATCC 19606 type strain
method-summary: CO-ADD antibacterial MIC assay
Format: cell-based
test-parameters: initial CO-ADD dose-response screening; ≥80% growth inhibition
Please provide measured MIC Ab for the entries that follow.
One number for each entry, in µg/mL.

Look up MIC Ab for the entries below, preserving their order.
1. Cc1cccc2[n+]1[Pd-2]([Cl])([Cl])[n+]1c(C)cccc1C(C(C)(C)C)=C=C2c1ccccc1 [HM_C2]
2. Cc1cccc(C2(c3ccccc3)[C]([Au-][Cl])=C(c3ccccc3)c3cccc(C)[n+]32)n1 (centres unmarked) [Au-S14]

A)
1. 32
2. 32

* * *

Test system: Acinetobacter baumannii ATCC 19606 type strain
method-summary: CO-ADD antibacterial MIC assay
Assay type: cell-based
test-parameters: initial CO-ADD dose-response screening; ≥80% growth inhibition
Protocol: For the all the bacterial assays, each bacterial strain was cultured in cation-adjusted Mueller Hinton broth (CAMHB; Bacto Laboratories 212322) at 37 °C overnight. […] The resultant mid-log phase cultures were diluted with CAMHB (CFU/mL measured by OD600) and then added to each well of the compound-containing plates (384-well non-binding surface (NBS) plates; Corning CLS3640), giving a cell density of 5 × 10^5 CFU/mL and a total volume of 50 μL. […]
readout-label: MIC Ab

{"columns": ["compound", "meas-value"],
 "data": [
  ["Cc1cccc2[n+]1[Au-]([Cl])([Cl])[n+]1c(C)cccc1C(C(C)(C)C)=C=C2c1ccccc1.[Cl-] [Au-S12]", "> 32 µg/mL"],
  ["O=C([O][Eu]([O]C(=O)c1ccc(F)cc1F)[O]C(=O)c1ccc(F)cc1F)c1ccc(F)cc1F.c1cnc2c(c1)ccc1cccnc12 [Eu-S5]", "> 20 µM"]
]}

Q) Could you tell me which MIC Ab is on file for O=C([O][Ag])c1ccc(N2N=C(/C=C/C=C/c3ccccc3)CC2/C=C/c2ccccc2)cc1.O=C([O][Ag])c1ccc(N2N=C(/C=C/C=C/c3ccccc3)CC2/C=C/c2ccccc2)cc1 (racemic) [Ag2] ?
A) >32 µg/mL

// data source = paper PMC9597602
